This collection of values is drawn from paper PMC2818674.

- PROTOCOL SUMMARY: PAMPA permeability assay
- Format: in vitro ADME
- EXPERIMENTAL CONDITIONS: pH 7.4
Let's look at some compounds and their measured Cell permeability, PAMPA % Flux.

{"COMPOUND": "CCCNc1nnc(Sc2ncc([N+](=O)[O-])s2)s1", "UNIT ANNOTATION": "%", "Cell permeability, PAMPA % Flux": 49.8}
{"COMPOUND": "COc1ccc(CCNc2nnc(Sc3ncc([N+](=O)[O-])s3)s2)cc1OC", "UNIT ANNOTATION": "%", "Cell permeability, PAMPA % Flux": 5.5}
{"COMPOUND": "O=[N+]([O-])c1cnc(Sc2nnc(O)n2-c2ccc3c(c2)OCCO3)s1 [BI-78D3, reference compound]", "UNIT ANNOTATION": "%", "Cell permeability, PAMPA % Flux": 30}
{"COMPOUND": "COCCNc1nnc(Sc2ncc([N+](=O)[O-])s2)s1", "UNIT ANNOTATION": "%", "Cell permeability, PAMPA % Flux": 76.3}
